Below: a set of entries, each annotated with reported Mean fraction #NGS counts mimetic peptide / total count selection.
- System: Scribble PDZ3
- protocol: Phosphomimetic ProP-PD selection with NGS
- Assay type: binding, human
- settings: mean of selections 1-3; bait Scribble PDZ3; phosphomimetic peptide
measurement-kind: Mean fraction #NGS counts mimetic peptide / total count selection

sequence	system	readout-number
ERLEYETEL	Scribble PDZ3	3.548e-5
PIHELETEL	Scribble PDZ3	0.0005099
WVDSYYTEL	Scribble PDZ3	0.002589
PLHELETEL	Scribble PDZ3	0.00248

* * *

- System: DLG1 PDZ3
- protocol: Phosphomimetic ProP-PD selection with NGS
- Assay type: binding, human
- settings: mean of selections 1-3; bait DLG1 PDZ3
- Description: Phage selections were carried out for four rounds following a protocol by Huang and Sidhu (Huang & Sidhu, 2011) with minor modifications. Non‐specific binding phage was removed by pre‐selections against immobilized GST throughout the selection. […] The naïve library and the enriched phage pools of the third day of selection were amplified and barcoded by PCR and analyzed by NGS as described elsewhere (McLaughlin & Sidhu, 2013; Ivarsson et al, 2014). […]
measurement-kind: Mean fraction #NGS counts wt peptide / total counts selection

sequence	readout-number
GGKRKETLV	0.06478
LPKIKETTV	0.008422
KGRAKGTPV	0.0008774
RPYRRESEI	2.154e-5
SRDRKETSI	0.002721
TIKLKTSFF	3.092e-5

* * *

- System: DLG1 PDZ1
- protocol: Phosphomimetic ProP-PD selection with NGS
- Assay type: binding, human
- settings: mean of selections 1-3; bait DLG1 PDZ1; phosphomimetic peptide
measurement-kind: Mean fraction #NGS counts mimetic peptide / total count selection

sequence	system	readout-number
YPGEPDEWV	DLG1 PDZ1	0.01439
PANRRETPV	DLG1 PDZ1	3.546e-5
LPKIKEETV	DLG1 PDZ1	3.0718e-6

* * *

- system: DLG1 PDZ2 (Homo sapiens)
- Construct: human DLG1 PDZ2 aa 311–407 in a modified pRSET vector 40; made in house; host or cells: E. coli BL21 Gold (DE3)
- Sequence (Q12959 311-407): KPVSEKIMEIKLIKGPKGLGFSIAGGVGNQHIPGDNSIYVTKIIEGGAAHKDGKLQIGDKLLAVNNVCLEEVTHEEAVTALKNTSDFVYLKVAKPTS
- protocol: Phosphomimetic ProP-PD selection with NGS
- Format: binding
- settings: mean of selections 1-3; bait DLG1 PDZ2
Below: a set of entries, each annotated with reported Mean fraction #NGS counts mimetic peptide / total count selection.
measurement-kind: Mean fraction #NGS counts mimetic peptide / total count selection

sequence	readout-number
IEFTQTEQF	0.001455
KLSEIESDV	0
HSIKQSTAV	0
YPGEPDEWV	0
ERLRVEEDV	0
RQTEYQGVL	0
ISYRRESAI	0
RSRSIETDV	0.009109
VVSERISEV	0.0004709
RSRSISEDV	3.877e-6
TMFLRETEL	0.0007019
DSEILETVV	0
VWLRKEERV	3.584e-5
GGKRKEELV	0.0001104
RATEWYSPY	0
RPYRRESEI	0
SRDRKEESI	0
ARVSKEEPL	0
HFESLESEV	0

* * *

- Test system: Scribble PDZ3
- protocol: Phosphomimetic ProP-PD selection with NGS
- Assay type: binding, human
- settings: mean over selections 1-3; bait Scribble PDZ3
measurement-kind: Mean fraction #NGS counts mimetic peptide / total count selection

sequence	readout-number
EEREVTTYL	0.000214
SRDRKEESI	2.019e-6
EARLWETSI	0.01196
HSIKQETAV	0.0001468
EIKLKTSFF	6.807e-5
KEEPFLTWL	0.001054
RPYRREEEI	0
MKRLTETRL	0.001041
GGKRKEELV	0
VRKLPETTL	0.002417
PLHELETSL	0
PLHSLETEL	0.01661
PLHSLEESL	0
SQSRMETNM	0.0002587
IPLTRETTF	0.0004175
ERLEYEETL	0
VTEERETNI	4.038e-6
PIHSLETEL	0.002436
EPTVHVTEL	1.586e-5
KLSEIESDV	6.057e-6
RPLRREEEI	0
QKFRAETAL	0.001978
LPKIKEETV	0
VWLRKEERV	0
